assay.method.text: yeast display, Sf9 membrane polyspecificity reagent, FACS + sequencing; frameworks hold sequencing errors

construct.sequence	polyreactivity (PSR sort gate)
QVQLVESGGGLVQAGGSLRLSCAASGLTFIAYAMGWYRQAPGKERELVAAITWIGDSTYYADSVKGRFTISRDNAKNTVYLQMNSLKPEDTAVYYCATDWYGQYNGIYDYWGQGTQVTVSS	low polyreactivity
QVQLVESGGGLVQAGGSLRLSCAASGYNFPYYAMGWYRQAPGKERELVAGITTDGSSTYYADSVKGRFTISRDNAKNTVYLQMNSLKPEDTAVYYCYGYPGYTWGWYDYWGQGTQVTVSS	low polyreactivity
QFQLGESGGGLVQAGGSLRLSCAACGSTFYLYAMGWYRQAPGKDRELVAAISKSCGSTYYADSVKGRFTISRDNAKNTVYLQMNSLKPEVTAVYYCATRWIKGRKMDYWGQGTQVTVSS	high polyreactivity
QVQLVESGGVLVQAVGSLRLSCAASGSIFRLYALGWYREARGKEREFVATITWSGGSTSYADSVKGRFTISRDNAKNTVYLQMNSLKPEDTAVYYCAAKRRYWLYDWGQGTQVTVSS	high polyreactivity
QVQLVESGGGLVQAGGRLRLSCAASGIIFGGYSMGWYRQAPGKERELVADITWSGGSTTYADSVKGRFTISRDNAKNTVYLQMNSLKPEDTAVYYCAAEDYYIYREPYDYWGQGTQVTVSS	low polyreactivity
QVQLVESGGGLVQAGGSLRLSCAASGRTFAGYTMGWYRQAPGKERELVAAITKSGGSTYYADSVKGRFTISRDNEKNTVYLQMNSLKPEDTAVYYCAARYIPSRYGTGCGYYSWGQGTQVTVSS	high polyreactivity
QVQLVESGGGLVQAGGSLRLICAASGSIFFGNAMGWYRQAPGKERELDAAITLRGGSTYYADSVKGRFTISRDNAKNTVYLQMNSLKPEDTAVYYCNAVSKRYGYGYWGQGTQVTVSS	high polyreactivity
QVQLVESGGGLVQAGGSLRLSCAASGSTFYVYAMGWYRQAPGKERELVAAIDSGDSTNYADSVKGRFTISRDNAKNTVYLQMNSLNPEDTAVYYCAVGYWDSRYRYDWPNSDYWGQGTQVTVSS	low polyreactivity
QVQLVESGGGLVQAGGSLRLSCAASGSIFKVYAMGWYRQAPGTERELVAGITLNGGSTYYADSVKGRFTISRDNAKNNVYLQMNSLKPEDTAVYYCNAVYSYYYRWYYDFDYWGQGTQVTVSS	high polyreactivity
QVQLVESGGGLVQAGGSLRLSFAASGRTFTYNAMGVYRQAPGKERELVAAMTYRGGSTYYADSVKGRFTISRDNAKNTVYLQMNSLKPEDTAVYYCAARVSYYRYNTPHYYYWGQGTQVTVSS	high polyreactivity
